Reported Percentage of Positive Cells (%) values for the following binders.
TGT: WT1RMF/HLA-A2 complex on cells (human)
PROTOCOL DESCRIPTION: flow cytometry, T2 cells pulsed with 25 µM WT1RMF, antibody 10 µg/mL
Response body: numeric value in %, unit text excluded.

BINDER | NUMERIC READOUT
1E9-IgG1-SI (antibody, V domains shown, VH and VL joined to IgG1 constant regions with SI mutations (S239D and I332E, EU numbering) in the Fc; also called 1E9-IgGI-SI) VH: EVQMVESGGDVVRPGGSLRLSCAASGFMFDDYGMSWVRHVQGKGLEWVSGIDWNGDSTGYADSVKGRFTISRDNAKNSLYLQMNSLRAEDTALYYCARDQGIAVAGPYNYYYGMDVWGQGTTVTVSS VL: EIVLTQSPATLSLSPGERATLSCRASQSVSSYLAWYQEKPGQAPRLLIFDASNRATGIPARFSGSGSGTDFTLTISSLEPEDFAVYYCQQRSNWPFTFGPGTRVEIK | 94.9
1G7-IgG1-SI (antibody, V domains shown, VH and VL joined to IgG1 constant regions with SI mutations (S239D and I332E, EU numbering) in the Fc) VH: QVQLVESGGGVVRPGGSLRLSCTASGFTFDDYGMTWVRQAPGKGLEWVSGINWNGGSTGYADSVKGRFTISRDNAKNSLFLQMNSLRAEDTALYYCARDQGIAVVGTHYYYYYGMDVWGQGTAVTVSS VL: EIVLTQSPATLSLSPGERATLSCRASQSFSSYLAWYQQKPGQAPRLLIFDTSNRATGIPARFSGSGSGTDFTLTISSLEPEDFAVYYCQQRSNWPLTFGGGTKVEIK | 92.4
3A6-IgG1-SI (antibody, V domains shown, VH and VL joined to IgG1 constant regions with SI mutations (S239D and I332E, EU numbering) in the Fc) VH: QVQLQESGPGMVKPSETLSLTCTVSGGSISYNYWSWIRQPPGKGLEWIGYIYHSGTTKYNPSLKSRVTMSVDTSKNHFSLKLNSVTAADTAVYYCARHEDYWFFDLWGRGTLVTVSS VL: DIQMTQSPSSLSASVGDRVTITCRASQGISNYLVWFQQKPGKAPKSLIYAASILQSGVPSKFSGSGSGTDFTLTINSLQPEDFATYYCQQYNTYPFTFGPGTKVDIK | 70.3
P01218-IgG1-SI (antibody, V domains shown, VH and VL joined to IgG1 constant regions with SI mutations (S239D and I332E, EU numbering) in the Fc; also called P01218-IgGI-SI) VH: EVQLVESGGGVVQPGRSLRLSCAASGFTFSSYAMHWVRQAPGKGLEWVAVISYDGSNKYYADSVKGRFTISRDNSKNTLYLQMNSLRAEDTAVYYCARAPYYGSGSYYNSYYYYHGMDVWGQGTTVTVSS VL: AIWMTQSPSSLSASVGDRVTITCQASQDISNYLNWYQQKPGKAPNLLIYDASNLETGVPSRFSGSGSGTDFTLTISSLQPEDIATYYCQQYDNLPLTFGGGTKVEIK | 92.8
4F10-IgG1-SI (antibody, V domains shown, VH and VL joined to IgG1 constant regions with SI mutations (S239D and I332E, EU numbering) in the Fc) VH: QVQLQESGPGLVKPSETLSLTCTVSGGSISNYYWSWIRQPPGKGLEWIGYIYYSGSTNYNPSLKSRVNISVDTSKSQVSLKLNSVIAADTAVYYCARHEDYWYFDLWGRGTLVTVSS VL: DIQLTQSPSSLSASIRDRVTITCRASQDINNYLAWFQQKPGKAPKSLIYAVSSLESGVPSKFSGSGSGTDFTLTISSLQPEDFATYFCQQYNSYPFTFGPGTKVEIK | 95.6
7B9-IgG1-SI (antibody, V domains shown, VH and VL joined to IgG1 constant regions with SI mutations (S239D and I332E, EU numbering) in the Fc; also called 7B9-IgGI-SI) VH: EVQLVESGGGVVQPGGSLRLSCAASGFTFDDYAMHWVRQAPGKGLEWVSLISGDDGSTYYADSMKGRITISRDNSKNSLYLQMNSLRTEDTAMYYCAKASYGSGSYLYNYGMDVWGQGTTVTVFS VL: DIQLTQSPSSLSASVGDRVTITCQASQDIINYLNWYQQKPGKAPKLLIYDTSNLETGVPSRFSGSGSGTDFAFTINSLQPEDIATYYCQQFVNLPLTFGGGTKVEIK | 93

Moving on to another binder below.
Task: Tell me the measured Percentage of Positive Cells (%) of P01264-IgG1-SI (antibody, V domains shown, VH and VL joined to IgG1 constant regions with SI mutations (S239D and I332E, EU numbering) in the Fc) VH: EVQLVESGGGLVKPGGSLRLSCAASGFTFSNAWMNWVRQAPGKGLEWVGRIKSKTDGGTTDYAAPVKGRFTISRHDSKNTLYLQMNSLKTEDTAVYYCATDPRIAVTGTDYYYGMDVWGQGTTVTVSS VL: DIVMTQTPSFLSASVGDRVTITCRASQDISNYLNWYQQKPGKAPKLLIYDASNLETGVPSRFSGSGSGTDFTFTISSLQPEDIATYYCQQYDNLPITFGQGTRLEIK , please.
Output: 75.4
